Provenance of the data: patent EP4620956A1

- Run description: Pharmacokinetic study of single administration in mice
- Type: in vivo
- Particulars: male, mouse, plasma; IV, 2 mg/kg, CD-1 mice
Observed property: clearance (mL/min/kg)
Answer with a number only, understood to be in mL/min/kg.

[ask] Report clearance for CCc1c(N)c2ncc(CN3CCN(c4ccc(C(=O)NC)nc4)CC3)cc2[nH]c1=O
[reply] 0.872

----------
- Assayed system: PARP1 (Homo sapiens, UniProt P09874)
- Construct: purchased BPS 80501
- Sequence (P09874 whole entry): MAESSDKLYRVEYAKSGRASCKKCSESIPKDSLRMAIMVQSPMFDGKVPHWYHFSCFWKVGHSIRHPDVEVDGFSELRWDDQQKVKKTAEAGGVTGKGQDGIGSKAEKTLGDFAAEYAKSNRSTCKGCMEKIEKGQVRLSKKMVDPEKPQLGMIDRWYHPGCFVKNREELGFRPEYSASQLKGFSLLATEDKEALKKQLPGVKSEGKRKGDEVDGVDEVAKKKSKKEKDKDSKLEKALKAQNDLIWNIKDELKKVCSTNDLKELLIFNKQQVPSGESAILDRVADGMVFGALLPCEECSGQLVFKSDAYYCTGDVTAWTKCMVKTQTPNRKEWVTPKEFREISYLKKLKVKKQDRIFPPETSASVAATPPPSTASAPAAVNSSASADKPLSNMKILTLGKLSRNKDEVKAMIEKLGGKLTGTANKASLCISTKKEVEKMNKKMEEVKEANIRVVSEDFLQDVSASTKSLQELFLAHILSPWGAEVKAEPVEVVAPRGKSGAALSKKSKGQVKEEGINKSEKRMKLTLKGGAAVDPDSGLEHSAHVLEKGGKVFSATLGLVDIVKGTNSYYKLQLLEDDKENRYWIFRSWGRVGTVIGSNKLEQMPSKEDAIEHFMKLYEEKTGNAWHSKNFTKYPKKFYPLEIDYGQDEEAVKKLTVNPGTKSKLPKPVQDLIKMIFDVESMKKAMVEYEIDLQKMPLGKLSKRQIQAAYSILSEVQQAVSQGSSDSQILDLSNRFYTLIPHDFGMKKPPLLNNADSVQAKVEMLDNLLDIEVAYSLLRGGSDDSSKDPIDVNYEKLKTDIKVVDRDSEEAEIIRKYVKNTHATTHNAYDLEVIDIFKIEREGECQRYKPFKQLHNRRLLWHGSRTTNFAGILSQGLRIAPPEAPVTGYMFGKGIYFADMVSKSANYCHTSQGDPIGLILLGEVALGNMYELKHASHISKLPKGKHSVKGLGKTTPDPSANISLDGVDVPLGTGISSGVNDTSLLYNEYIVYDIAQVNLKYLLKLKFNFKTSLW
- Run description: Inhibition of PARP1 enzyme activity (chemiluminescence)
- Assay type: biochemical
- Particulars: PARP2 vs PARP1
# PARP1/2 selectivity fold per entry
Answer with a number only, understood to be in fold.

For orientation, consider the following solved cases.
> print(dat)
                                   compound   uom  reported.result
1  CCc1c(N)c2ncc(CN3CCN(c4ccc(C(=O)NOC)nc4F)CC3)cc2[nH]c1=O [Example 2]  fold               44
2  CCc1c(N)c2ncc(CN3CCN(c4ccc(C(=O)NC)nc4)CC3)cc2[nH]c1=O [Example 1]  fold              108
3  CCc1c(N)c2ncc(CN3CCN(c4ccc(C(=O)NC)nc4F)CC3)cc2[nH]c1=O [Example 3]  fold               21

As a next step, examine the compound that follows.
[ask] Lab note: PARP1 (Homo sapiens, UniProt P09874) assay, enter PARP1/2 selectivity fold for [2H]C([2H])([2H])NC(=O)c1ccc(N2CCN(Cc3cnc4c(N)c(CC)c(=O)[nH]c4c3)CC2)c(F)n1 [Example 4] here
[reply] 39

----------
- Assayed system: PARP2 (Homo sapiens, UniProt Q9UGN5)
- Construct: purchased BPS 80502
- Sequence (Q9UGN5 whole entry): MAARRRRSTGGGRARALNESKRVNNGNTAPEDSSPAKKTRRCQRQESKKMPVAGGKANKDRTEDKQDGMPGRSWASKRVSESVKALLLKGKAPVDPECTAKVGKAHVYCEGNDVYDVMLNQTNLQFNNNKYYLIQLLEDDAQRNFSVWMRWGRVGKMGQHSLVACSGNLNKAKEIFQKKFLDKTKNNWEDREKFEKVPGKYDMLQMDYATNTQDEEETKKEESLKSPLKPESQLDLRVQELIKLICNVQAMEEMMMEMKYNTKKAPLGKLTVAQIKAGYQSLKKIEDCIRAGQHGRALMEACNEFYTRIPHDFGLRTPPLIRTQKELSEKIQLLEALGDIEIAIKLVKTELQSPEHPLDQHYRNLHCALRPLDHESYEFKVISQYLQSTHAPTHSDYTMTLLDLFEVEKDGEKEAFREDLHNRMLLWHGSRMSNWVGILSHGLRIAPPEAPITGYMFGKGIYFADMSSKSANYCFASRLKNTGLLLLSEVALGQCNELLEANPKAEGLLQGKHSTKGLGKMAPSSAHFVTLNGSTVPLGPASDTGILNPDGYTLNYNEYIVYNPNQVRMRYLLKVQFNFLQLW
- Run description: PARP2-DNA trapping, fluorescence polarization (FP)
- Format: biochemical
- Particulars: PARP2, 24 hour
pEC50: −log10 of the molar value.
Observed property: pEC50

[ask] Report pEC50 for [2H]C([2H])([2H])NC(=O)c1ccc(N2CCN(Cc3cnc4c(N)c(CC)c(=O)[nH]c4c3)CC2)c(F)n1
[reply] < 5.00

----------
- Test system: MDA-MB-436
- Run description: Anti-proliferative activity (CellTiter-Glo, 7 days), MDA-MB-436
- Type: cell-based, human
- Particulars: MDA-MB-231 vs MDA-MB-436
Observed property: BRCA1 mutation/WT selectivity fold

> print(dat)
                               given.smiles  assayed.system  reported.result
1  CCc1c(N)c2ncc(CN3CCN(c4ccc(C(=O)NC)nc4F)CC3)cc2[nH]c1=O      MDA-MB-436       5,828 fold
2  CCc1c(N)c2ncc(CN3CCN(c4ccc(C(=O)NOC)nc4F)CC3)cc2[nH]c1=O      MDA-MB-436      >1,742 fold

[ask] Report BRCA1 mutation/WT selectivity fold for CCc1c(N)c2ncc(CN3CCN(c4ccc(C(=O)NC)nc4)CC3)cc2[nH]c1=O
[reply] >608 fold

[ask] Report BRCA1 mutation/WT selectivity fold for [2H]C([2H])([2H])NC(=O)c1ccc(N2CCN(Cc3cnc4c(N)c(CC)c(=O)[nH]c4c3)CC2)c(F)n1
[reply] >5,181 fold
